# Tested on: RXF 393
# assay.comment: NCI tumour cell line growth inhibition, 48 h
Activity calls are given as the source filed them. Rule as the data show it: active = GI50 up to about 1.1 µM and inactive = higher.
Outcomes: active, inactive

[[record]]
compound = "OC(Cc1cccc2ccccc12)CN1CCC(c2ccccc2)CC1 (centres undefined)"
class_label = "inactive"

[[record]]
compound = "O=c1c2sc3nc(NCCN4CCCCC4)ncc3c2ncn1-c1ccccc1"
class_label = "inactive"

[[record]]
compound = "CC(=O)OCCc1cc2ccccc2oc1=O"
class_label = "inactive"

[[record]]
compound = "O=c1[nH]nc(-c2ccccc2)c2[nH]c3c4ccccc4ccc3c12"
class_label = "inactive"

[[record]]
compound = "CC1(Cl)CC2OC3(Br)C=CC(C)(O)C2(CC1Br)C3(C)C (centres undefined)"
class_label = "inactive"

[[record]]
compound = "CCOC(=O)[C@@H]1CCN2CN(c3ccc(OC)cc3)N=C(c3ccccc3)[C@@]12c1ccccc1"
class_label = "inactive"

[[record]]
compound = "CC(C)(CN1CCCCC1)C(=O)CC(SCCS(=O)(=O)O)c1ccccc1 (centres undefined)"
class_label = "inactive"

[[record]]
compound = "NC1=C(NC(=O)Cc2ccccc2F)C(=O)c2ccccc2C1=O"
class_label = "inactive"

[[record]]
compound = "Sc1nnc(NNc2ccccc2)n1Nc1ccccc1"
class_label = "inactive"

[[record]]
compound = "CCCCCCCCCCC(O)C1CCC(C2CCC(C(O)CCCCC(O)CCCCCC(O)CC3=CC(C)OC3=O)O2)O1 (centres undefined)"
class_label = "inactive"

[[record]]
compound = "O=c1[nH]c2ccccc2c2nc3ccccc3n12"
class_label = "inactive"

[[record]]
compound = "O=C(O)/C=C\\C(=O)c1ccc(Cl)cc1"
class_label = "inactive"

[[record]]
compound = "CC(=O)OC(C)(C)/C=C/C(=O)[C@](C)(O)[C@H]1[C@H](O)C[C@@]2(C)[C@@H]3CC=C4[C@@H](C[C@H](O)C(=O)C4(C)C)[C@]3(CO)C(=O)C[C@]12C [CUCURBITACIN A]"
class_label = "active"

[[record]]
compound = "CC(C)c1cccc(C(C)C)c1/N=C(/N)C#N"
class_label = "inactive"

[[record]]
compound = "Cc1cc2c(cc1Cl)SC(NNCCO)=NS2(=O)=O"
class_label = "inactive"

[[record]]
compound = "FC(F)(F)c1cccc(/C=N/C23CC4CC(CC(C4)C2)C3)c1"
class_label = "inactive"

[[record]]
compound = "N#Cc1nc(NC(=O)c2ccccc2)sc1N"
class_label = "inactive"

[[record]]
compound = "O=C(O)CSc1nnc(-c2ccco2)[nH]1"
class_label = "inactive"

[[record]]
compound = "CC(=O)O[C@H]1C(=O)[C@@]2(C)C([C@H](OC(=O)c3ccccc3)[C@]3(O)C[C@H](OC(=O)[C@H](O)[C@@H](NC(=O)c4ccc(Cl)cc4)c4ccccc4)C(C)=C1C3(C)C)C1(OC(C)=O)CO[C@@H]1C[C@@H]2O (some centres undefined)"
class_label = "active"

[[record]]
compound = "O=C(NCCCN(CCCCN(CCCNC(=O)C(F)(F)F)Cc1ccccc1)Cc1ccccc1)C(F)(F)F"
class_label = "inactive"

[[record]]
compound = "CCn1c2ccccc2c2cc(NC(=O)c3c(C)nc(O)nc3NCCNCCO)ccc21"
class_label = "inactive"

[[record]]
compound = "Cc1ccc2cc3cccc(C(=O)NCCN(C)C)c3nc2c1"
class_label = "active"

[[record]]
compound = "O=[N+]([O-])c1ccccc1C1SCc2nc3ccccc3n21 (centres undefined)"
class_label = "inactive"

[[record]]
compound = "O=C(O)CNc1ncc2c(n1)-c1ccccc1OC2"
class_label = "inactive"

[[record]]
compound = "Cc1cc(S(=O)(=O)Nc2nc(Nc3ccccc3)n[nH]2)c(SSc2cc(Cl)c(C)cc2S(=O)(=O)Nc2nc(Nc3ccccc3)n[nH]2)cc1Cl"
class_label = "inactive"

[[record]]
compound = "O=C1N/C(=N/N=C/C(O)C(O)C(O)CO)N/C1=C\\c1c[nH]c2ccccc12 (centres undefined)"
class_label = "inactive"

[[record]]
compound = "O=C1/C(=C/c2ccc3c(c2)OCO3)SC2C=Nc3ccccc3N12 (centres undefined)"
class_label = "inactive"

[[record]]
compound = "COC1OC(C)/C(=N/O)C2OC(C)(C)OC12 (centres undefined)"
class_label = "inactive"

[[record]]
compound = "OC(c1ccccc1)(c1cccnc1)C(O)(c1ccccc1)c1cccnc1 (centres undefined)"
class_label = "inactive"

[[record]]
compound = "O=C1/C(=C(\\Nc2ccccc2)c2ccccc2)C=NN1c1ccccc1"
class_label = "inactive"

[[record]]
compound = "COc1ccc2c3c1O[C@]1(C)C34CCN(C)C(C2)C42C=C[C@@]1(OC)c1c(O)ccc(O)c12"
class_label = "inactive"

[[record]]
compound = "CC1OC(OC2C(O[C@H]3CC[C@@]4(C)C(=CC[C@H]5[C@@H]6C[C@@H]7O[C@]8(CC[C@@H](C)CO8)[C@@H](C)[C@@H]7[C@@]6(C)CC[C@@H]54)C3)OC(CO)C(O)C2O)C(O)C(O)C1O (some centres undefined)"
class_label = "inactive"

[[record]]
compound = "Cc1cc(Cl)ccc1NC(=O)CC/C(CC(=O)C(C)C)=N\\NC(=O)C[n+]1ccccc1"
class_label = "inactive"

[[record]]
compound = "COc1cc(C2c3cc4c(cc3[C@H](OCCN(C)C)[C@@H]3COC(=O)C23)OCO4)cc(OC)c1O (some centres undefined)"
class_label = "active"

[[record]]
compound = "Cc1cc(C23OC4COC(C)(C)OC4C2OC(C)(C)O3)nc2ccccc12 (centres undefined)"
class_label = "inactive"

[[record]]
compound = "CC(C)[Si](OC1=C(C(=O)N(C)c2ccccc2Cl)CCCCC1)(C(C)C)C(C)C"
class_label = "inactive"

[[record]]
compound = "Cc1ccc(S(=O)(=O)N/N=C2\\CCC3(O)CC2(C)CCC2C3CC2(C)C)cc1 (centres undefined)"
class_label = "inactive"

[[record]]
compound = "CC1(C)O[C@@H]([C@@H](O)[C@H](O)C2SCCCS2)[C@@H](CO)O1"
class_label = "inactive"

[[record]]
compound = "O=C(CCN1CCC(CCO)CC1)Nc1ccc2c(c1)C(=O)c1ccc(NC(=O)CCN3CCC(CCO)CC3)cc1C2=O"
class_label = "inactive"

